measuredOn: APOL1 G2 (Homo sapiens, UniProt O14791, DEL388-389)
Construct: expressed in transfected cells; host or cells: HEK293 T-REx clonal line stably expressing GCaMP6f (HEK T-REx/GCaMP6f/APOL1 G2 K6.3), doxycycline induced
Sequence (O14791 with tags, fused parts or gaps DEL388-389): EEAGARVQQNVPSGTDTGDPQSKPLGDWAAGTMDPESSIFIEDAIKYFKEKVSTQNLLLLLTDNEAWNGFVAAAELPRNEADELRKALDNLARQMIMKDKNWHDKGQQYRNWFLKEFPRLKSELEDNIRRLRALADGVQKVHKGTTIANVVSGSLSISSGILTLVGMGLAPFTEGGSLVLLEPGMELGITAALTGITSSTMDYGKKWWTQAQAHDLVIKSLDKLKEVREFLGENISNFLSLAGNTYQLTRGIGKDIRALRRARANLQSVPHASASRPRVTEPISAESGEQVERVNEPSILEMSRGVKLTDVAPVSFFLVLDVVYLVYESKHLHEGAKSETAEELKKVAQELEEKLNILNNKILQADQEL
method: APOL1-mediated calcium transport (calcium influx) assay, HEK T-REx/GCaMP6f/APOL1 G2 K6.3 cells, FLIPR TETRA
Assay type: cell-based
testContext: prevention of calcium influx; geometric mean of at least 2 assay runs; † = average of a technical replicate from a single assay run
readoutName: AC50 (nM)
State the answer as a number, implicitly in nM.

Illustrative cases are given below, each with its answer.
CN=S(C)(=O)c1ccc(OCCN2CCC3(CC2)C(=O)Nc2ccc(Cl)cc23)cc1 (centres unmarked) [Compound 147] ... 492
N#Cc1ccc2c(c1)C1(CCN(CCOc3ccc4c(c3)CCNS4(=O)=O)CC1)C(=O)N2 [Compound 168] ... 1390
Cc1cc(OCCN2CCC3(CC2)C(=O)Nc2ccc(Cl)cc23)ccc1C(N)=O [Compound 49] ... 875

Asked: Sample CC1(S(=O)(=O)c2ccc(OCCN3CCC4(CC3)C(=O)Nc3ccc(Cl)cc34)cc2)COC1 [Compound 92] — what was its AC50?
Given back: 761

Asked: Sample C[C@]1(O)C[C@@H](n2nnc3cc(OCCN4CCC5(CC4)C(=O)Nc4ccc(C#N)cc45)cc(C(F)(F)F)c32)C1 [Compound 435] — what was its AC50?
Given back: 1170

Asked: Sample CS(=O)(=O)C1(c2ccc(OCCN3CCC4(CC3)C(=O)Nc3ccc(C#N)cc34)cc2C(F)(F)F)COC1 [Compound 166] — what was its AC50?
Given back: 618

Asked: Sample O=C1NCC2c3ccc(OCCN4CCC5(CC4)C(=O)Nc4ccc(Cl)cc45)cc3CCN12 (single isomer, unassigned) [Compound 117] — what was its AC50?
Given back: 396

Asked: Sample Cc1nc2cc(OCCN3CCC4(CC3)C(=O)Nc3ccc(C#N)cc34)cc(C(F)(F)F)c2n1[C@H]1C[C@@](C)(O)C1 [Compound 443] — what was its AC50?
Given back: 2670

Asked: Sample N#Cc1ccc2c(c1)C1(CCN(CCOc3ccc4c(c3)CNC4=O)CC1)C(=O)N2 [Compound 170] — what was its AC50?
Given back: 1310

Asked: Sample CC1(O)CC(c2ncc(OCCN3CCC4(CC3)C(=O)Nc3ccc(Cl)cc34)cn2)C1 (single isomer, unassigned) [Compound 393] — what was its AC50?
Given back: 1060

Asked: Sample C[C@]1(O)C[C@@H](n2cnc3cc(OCCN4CCC5(CC4)C(=O)Nc4ccc(C#N)cc45)cc(C(F)(F)F)c32)C1 [Compound 433] — what was its AC50?
Given back: 1300

Asked: Sample CN1C(=O)CCc2cc(OCCN3CCC4(CC3)C(=O)Nc3ccc(Cl)cc34)ccc21 [Compound 27] — what was its AC50?
Given back: 510

Asked: Sample N#Cc1ccc2c(c1)C1(CCN(CCOc3ccc(C(N)=O)c(F)c3)CC1)C(=O)N2 [Compound 238] — what was its AC50?
Given back: 285

Asked: Sample Cn1c(=O)oc2cc(OCCN3CCC4(CC3)C(=O)Nc3ccc(C#N)cc34)ccc21 [Compound 132] — what was its AC50?
Given back: 492

Asked: Sample CN1C(=O)CCc2cc(OCCN3CCC4(CC3)C(=O)Nc3ccc(Cl)cc34)cnc21 [Compound 78] — what was its AC50?
Given back: 522

Asked: Sample O=C1CCC2c3ccc(OCCN4CCC5(CC4)C(=O)Nc4ccc(Cl)cc45)cc3CCN12 (single isomer, unassigned) [Compound 122] — what was its AC50?
Given back: 616

Asked: Sample CS(=O)(=O)c1ccc(OCCN2CCC3(CC2)C(=O)Nc2ccc(Cl)cc23)cc1C(F)F [Compound 197] — what was its AC50?
Given back: 889

Asked: Sample O=C(c1ccc(OCCN2CCC3(CC2)C(=O)Nc2ccc(Cl)cc23)cc1F)N1CCOCC1 [Compound 231] — what was its AC50?
Given back: 1020
